Item-by-item account of IC50
study.system: Androgen receptor (Homo sapiens, UniProt P10275, T878A)
Sequence (P10275 whole entry T878A): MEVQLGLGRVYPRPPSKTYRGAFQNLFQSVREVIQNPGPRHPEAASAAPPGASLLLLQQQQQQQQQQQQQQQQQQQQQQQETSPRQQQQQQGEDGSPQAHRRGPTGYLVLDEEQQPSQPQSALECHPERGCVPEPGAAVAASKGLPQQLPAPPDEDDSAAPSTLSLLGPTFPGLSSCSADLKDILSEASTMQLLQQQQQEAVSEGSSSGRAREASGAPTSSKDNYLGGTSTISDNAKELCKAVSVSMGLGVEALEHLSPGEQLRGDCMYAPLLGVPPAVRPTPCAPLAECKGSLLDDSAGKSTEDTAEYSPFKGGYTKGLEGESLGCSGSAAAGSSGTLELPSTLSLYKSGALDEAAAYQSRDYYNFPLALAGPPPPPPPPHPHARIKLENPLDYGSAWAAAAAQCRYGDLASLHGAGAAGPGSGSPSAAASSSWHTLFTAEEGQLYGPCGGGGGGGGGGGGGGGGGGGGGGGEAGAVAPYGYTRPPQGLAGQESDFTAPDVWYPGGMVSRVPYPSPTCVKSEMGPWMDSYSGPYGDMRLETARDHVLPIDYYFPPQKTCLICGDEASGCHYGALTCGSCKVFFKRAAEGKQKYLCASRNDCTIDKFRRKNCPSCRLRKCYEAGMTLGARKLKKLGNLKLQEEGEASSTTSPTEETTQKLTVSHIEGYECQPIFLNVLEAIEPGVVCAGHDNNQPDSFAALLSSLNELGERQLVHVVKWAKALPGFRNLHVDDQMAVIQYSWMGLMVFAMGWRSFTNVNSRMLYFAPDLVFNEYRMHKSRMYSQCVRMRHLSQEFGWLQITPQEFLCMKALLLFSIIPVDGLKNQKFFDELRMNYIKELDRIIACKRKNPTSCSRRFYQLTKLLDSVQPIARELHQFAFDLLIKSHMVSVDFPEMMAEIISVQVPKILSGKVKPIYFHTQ
assay.summary: Antagonist activity at human androgen receptor T877A mutant expressed in COS7 cells assessed as inhibition of DHT-induced luciferase activity after 24 hrs by reporter gene assay
Assay type: functional, cell-based, COS-7

{"compound": "Cc1c(C#N)c(-c2ccc(C#N)cc2)c(C)n1Cc1ccccc1", "IC50 (nM)": 41}
{"compound": "CC(=O)c1c(-c2ccc([N+](=O)[O-])cc2)c(C)n(Cc2ccccc2)c1C", "IC50 (nM)": 900}
{"compound": "COC(=O)c1c(-c2ccccc2)c(C)n(Cc2ccccc2)c1C", "IC50 (nM)": 1300}
{"compound": "Cc1cc(-c2ccc([N+](=O)[O-])cc2)c(C)n1Cc1ccccc1", "IC50 (nM)": 210}
{"compound": "Cc1c(C#N)c(-c2ccc(C#N)cc2)c(C)n1Cc1cnc(Cl)c(CO)c1", "IC50 (nM)": 110}
{"compound": "CCOC(=O)c1c(-c2ccc([N+](=O)[O-])cc2)c(C)n(CC2CCCCC2)c1C", "IC50 (nM)": 3700}
{"compound": "CCOC(=O)c1c(-c2ccc([N+](=O)[O-])cc2)c(C)n(-c2ccccc2)c1C", "IC50 (nM)": 2100}
{"compound": "COC(=O)c1c(-c2ccc([N+](=O)[O-])cc2)c(C)n(Cc2ccccc2)c1C", "IC50 (nM)": 150}
{"compound": "CCOC(=O)c1c(-c2ccc([N+](=O)[O-])cc2)c(C)n(S(=O)(=O)c2ccccc2)c1C", "IC50 (nM)": 4700}
{"compound": "CCOC(=O)c1c(-c2ccc([N+](=O)[O-])cc2)c(C)n(Cc2ccccc2)c1C", "IC50 (nM)": 160}
{"compound": "COC(=O)c1c(-c2ccc(C#N)c(C(F)(F)F)c2)c(C)n(Cc2ccccc2)c1C", "IC50 (nM)": 690}
{"compound": "Cc1c(CO)c(-c2ccc([N+](=O)[O-])cc2)c(C)n1Cc1ccccc1", "IC50 (nM)": 660}
{"compound": "CCOC(=O)c1c(-c2ccc([N+](=O)[O-])cc2)c(C)n(C)c1C", "IC50 (nM)": 210}
{"compound": "COC(=O)c1c(-c2ccc(C#N)cc2)c(C)n(Cc2ccccc2)c1C", "IC50 (nM)": 120}
{"compound": "CCOC(=O)c1c(-c2ccc([N+](=O)[O-])cc2)c(C)n(CCc2ccccc2)c1C", "IC50 (nM)": 970}
{"compound": "CCOC(=O)c1c(-c2ccc([N+](=O)[O-])cc2)c(C)n(C(=O)c2ccccc2)c1C", "IC50 (nM)": 1500}
{"compound": "Cc1c(C#N)c(-c2ccc(C#N)cc2)c(C)n1Cc1ccc(Cl)nc1", "IC50 (nM)": 100}
{"compound": "Cc1c(C(=O)O)c(-c2ccc([N+](=O)[O-])cc2)c(C)n1Cc1ccccc1", "IC50 (nM)": 6500}
{"compound": "Cc1c(C#N)c(-c2ccc(C#N)cc2)c(C)n1Cc1cccnc1", "IC50 (nM)": 190}
{"compound": "Cc1c(-c2ccc(C#N)cc2)c(C#N)cn1Cc1cnc(Cl)c(CO)c1", "IC50 (nM)": 810}
{"compound": "Cc1c(C#N)c(-c2ccc(C#N)cc2)cn1Cc1cnc(Cl)c(CO)c1", "IC50 (nM)": 910}
{"compound": "CCOC(=O)c1c(C)[nH]c(C)c1-c1ccc([N+](=O)[O-])cc1", "IC50 (nM)": 340}
{"compound": "Cc1c(C#N)c(-c2ccc(C#N)cc2)c(C)n1Cc1cncc(CO)c1", "IC50 (nM)": 440}

* * *

assay.summary: Solubility in aqueous buffer solution at pH 6.8
Format: physicochemical
Item-by-item account of solubility

{"compound": "Cc1c(C#N)c(-c2ccc(C#N)cc2)c(C)n1Cc1cnc(Cl)c(CO)c1", "solubility / µg/mL": 15}
{"compound": "Cc1c(C#N)c(-c2ccc(C#N)cc2)c(C)n1Cc1cncc(CO)c1", "solubility / µg/mL": 3.5}
{"compound": "Cc1c(C#N)c(-c2ccc(C#N)cc2)c(C)n1Cc1ccc(Cl)nc1", "solubility / µg/mL": 0.83}
{"compound": "Cc1c(C#N)c(-c2ccc(C#N)cc2)c(C)n1Cc1ccccc1", "solubility / µg/mL": 0.35}
{"compound": "Cc1c(C#N)c(-c2ccc(C#N)cc2)c(C)n1Cc1cccnc1", "solubility / µg/mL": 5.1}

* * *

study.system: Androgen receptor (Homo sapiens, UniProt P10275, W742C)
Sequence (P10275 whole entry W742C): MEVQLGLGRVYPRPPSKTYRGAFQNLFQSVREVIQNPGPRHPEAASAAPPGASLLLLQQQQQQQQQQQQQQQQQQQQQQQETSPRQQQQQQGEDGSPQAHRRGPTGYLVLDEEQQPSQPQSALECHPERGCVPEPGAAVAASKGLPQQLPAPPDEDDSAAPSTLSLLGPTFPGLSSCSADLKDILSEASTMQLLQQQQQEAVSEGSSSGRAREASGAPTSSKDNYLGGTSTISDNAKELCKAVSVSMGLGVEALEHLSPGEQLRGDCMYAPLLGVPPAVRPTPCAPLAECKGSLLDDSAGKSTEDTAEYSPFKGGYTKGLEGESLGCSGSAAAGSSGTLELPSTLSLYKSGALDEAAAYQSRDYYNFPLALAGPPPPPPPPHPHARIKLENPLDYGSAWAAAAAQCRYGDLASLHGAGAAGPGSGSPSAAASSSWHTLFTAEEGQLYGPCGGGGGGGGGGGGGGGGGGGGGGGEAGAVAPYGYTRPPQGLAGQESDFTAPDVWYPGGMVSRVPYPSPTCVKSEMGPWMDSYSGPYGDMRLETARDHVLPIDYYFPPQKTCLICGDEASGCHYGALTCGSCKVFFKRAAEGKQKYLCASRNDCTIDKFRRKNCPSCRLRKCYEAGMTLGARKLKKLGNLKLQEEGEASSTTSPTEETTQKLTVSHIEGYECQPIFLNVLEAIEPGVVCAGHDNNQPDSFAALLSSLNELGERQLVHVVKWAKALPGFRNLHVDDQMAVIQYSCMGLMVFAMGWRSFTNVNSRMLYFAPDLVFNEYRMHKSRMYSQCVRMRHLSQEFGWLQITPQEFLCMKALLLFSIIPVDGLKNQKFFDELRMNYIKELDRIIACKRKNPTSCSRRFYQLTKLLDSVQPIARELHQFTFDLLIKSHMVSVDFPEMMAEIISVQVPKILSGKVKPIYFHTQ
assay.summary: Antagonist activity at human androgen receptor W741C mutant expressed in COS7 cells assessed as inhibition of DHT-induced luciferase activity after 24 hrs by reporter gene assay
Item-by-item account of IC50
readout.label: IC50 (µM)

{"compound": "CCOC(=O)c1c(-c2ccc([N+](=O)[O-])cc2)c(C)n(CCc2ccccc2)c1C", "qualifier.sign": ">", "experimental.value": 10}
{"compound": "Cc1c(C#N)c(-c2ccc(C#N)cc2)cn1Cc1cnc(Cl)c(CO)c1", "qualifier.sign": "=", "experimental.value": 0.76}
{"compound": "CCOC(=O)c1c(-c2ccc([N+](=O)[O-])cc2)c(C)n(C(=O)c2ccccc2)c1C", "qualifier.sign": "=", "experimental.value": 7.7}
{"compound": "COC(=O)c1c(-c2ccc([N+](=O)[O-])cc2)c(C)n(Cc2ccccc2)c1C", "qualifier.sign": "=", "experimental.value": 0.74}
{"compound": "CCOC(=O)c1c(-c2ccc([N+](=O)[O-])cc2)c(C)n(CC2CCCCC2)c1C", "qualifier.sign": "=", "experimental.value": 7.2}

* * *

study.system: Androgen receptor (Homo sapiens, UniProt P10275, W742C)
assay.summary: Agonist activity at human androgen receptor W741C mutant expressed in COS7 cells assessed as luciferase activity after 24 hrs by reporter gene assay
pEC50: −log10 of the molar value.
readout.label: pEC50

{"compound": "CCOC(=O)c1c(-c2ccc([N+](=O)[O-])cc2)c(C)n(Cc2ccccc2)c1C", "readout.label": "pEC50", "experimental.value": "< 5.00"}
{"compound": "Cc1c(C#N)c(-c2ccc(C#N)cc2)c(C)n1Cc1ccccc1", "readout.label": "pEC50", "experimental.value": "< 5.00"}
{"compound": "Cc1c(CO)c(-c2ccc([N+](=O)[O-])cc2)c(C)n1Cc1ccccc1", "readout.label": "pEC50", "experimental.value": "< 5.00"}
{"compound": "COC(=O)c1c(-c2ccc(C#N)cc2)c(C)n(Cc2ccccc2)c1C", "readout.label": "pEC50", "experimental.value": "< 5.00"}
{"compound": "Cc1cc(-c2ccc([N+](=O)[O-])cc2)c(C)n1Cc1ccccc1", "readout.label": "pEC50", "experimental.value": "< 5.00"}

* * *

assay.summary: AUC in mouse at 5 mg/kg, po
Assay type: ADME, organism-based
Set-up: dose 5 mg/kg, route oral
condition.info: plasma

{"compound": "Cc1c(C#N)c(-c2ccc(C#N)cc2)c(C)n1Cc1cnc(Cl)c(CO)c1", "AUC [ng·h/mL]": 19200}

* * *

study.system: Androgen receptor (Homo sapiens, UniProt P10275, T878A)
assay.summary: Displacement of [17-alpha-methyl-3H]-mibolerone from human androgen receptor T877A mutant expressed in HEK293 derived FreeStyle293F cells after 3 hrs
Assay type: cell-based

{"compound": "COC(=O)c1c(-c2ccc(C#N)cc2)c(C)n(Cc2ccccc2)c1C", "IC50 [nM]": 23}
{"compound": "Cc1c(C#N)c(-c2ccc(C#N)cc2)c(C)n1Cc1ccc(Cl)nc1", "IC50 [nM]": 24}
{"compound": "CC(=O)c1c(-c2ccc([N+](=O)[O-])cc2)c(C)n(Cc2ccccc2)c1C", "IC50 [nM]": 130}
{"compound": "CCOC(=O)c1c(-c2ccc([N+](=O)[O-])cc2)c(C)n(CCc2ccccc2)c1C", "IC50 [nM]": 52}
{"compound": "CCOC(=O)c1c(C)[nH]c(C)c1-c1ccc([N+](=O)[O-])cc1", "IC50 [nM]": 34}
{"compound": "CCOC(=O)c1c(-c2ccc([N+](=O)[O-])cc2)c(C)n(CC2CCCCC2)c1C", "IC50 [nM]": 350}
{"compound": "CCOC(=O)c1c(-c2ccc([N+](=O)[O-])cc2)c(C)n(Cc2ccccc2)c1C", "IC50 [nM]": 5.2}
{"compound": "CCOC(=O)c1c(-c2ccc([N+](=O)[O-])cc2)c(C)n(C(=O)c2ccccc2)c1C", "IC50 [nM]": 85}
{"compound": "Cc1c(CO)c(-c2ccc([N+](=O)[O-])cc2)c(C)n1Cc1ccccc1", "IC50 [nM]": 92}
{"compound": "Cc1c(C#N)c(-c2ccc(C#N)cc2)c(C)n1Cc1cccnc1", "IC50 [nM]": 23}
